FYI, the data here is from ChEMBL document CHEMBL1201862.

System: RPMI-8226
test.method.notes: NCI tumour cell line growth inhibition, 48 h
Activity calls are given as the source filed them. Rule as the data show it: active = GI50 up to about 1.1 µM and inactive = higher.
Valid outcomes are listed here; reply with one: class 1 for active, class 0 for inactive

CCCCN(CCCC)c1c([N+](=O)[O-])c(=O)nc2ccccn12	class 0
CC1=CC(=O)C(C(O)(C(F)(F)F)C(F)(F)F)C(C)(C)C1 (configuration not stated)	class 0
NNC(=S)N/N=C/C(=C/Nc1ccccc1)[N+](=O)[O-]	class 0
O=c1cc(O)c2c(O)cc(O)cc2o1	class 0
COc1cc(C2SCC(=O)N2NC(=O)c2ccc(NC(C)=O)cc2)cc(OC)c1OC (configuration not stated)	class 0
CC(=O)/C=C/CCC(=O)/C=C/C(=O)OC(CCC(=O)/C=C/C(=O)O)CC(C)=O (configuration not stated)	class 0

In: Kindly provide the recorded test outcome for the following compound: `CCCCC(=O)Nc1ccc2cc(C(=O)OC)c(Cl)nc2n1`
Out: class 0

In: Kindly provide the recorded test outcome for the following compound: `COc1ccc(C(=O)O[C@@H]2CCN3CC[C@H](C)[C@H]23)cc1`
Out: class 0

In: Kindly provide the recorded test outcome for the following compound: `COc1cc([C@@H]2c3cc4c(cc3[C@@H](Nc3ccc([N+](=O)[O-])cc3C(=O)c3ccccc3)[C@H]3COC(=O)[C@H]23)OCO4)cc(OC)c1OC`
Out: class 1

In: Kindly provide the recorded test outcome for the following compound: `CC1=CC(=O)N(n2c(Cc3ccccc3)n[nH]c2=O)C1=O`
Out: class 0

In: Kindly provide the recorded test outcome for the following compound: `CCOC(=O)C1(F)S(=O)(=O)OCCOS1(=O)=O`
Out: class 0

In: Kindly provide the recorded test outcome for the following compound: `CC(C)NC(=O)OCc1c(COC(=O)NC(C)C)c(-c2ccc[n+](COC(=O)CC(C)(C)C)c2)n2c1CCC2`
Out: class 0
